Where do the numbers come from? From ChEMBL document CHEMBL1201861.

Test system: KYSE-70 cell line;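 also: cell viability assay read-out, with IC50 expressing suppression of KYSE-70 cell growth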
Experiment Notes: cells
Format: functional, cell-based
Stated Conditions: Homo sapiens
Description: SANGER: Inhibition of human KYSE-70 cell growth in a cell viability assay.
# IC50 listing for each entry below
# number only, unit nM dropped from output

| Compound | Subject Of Test | Measure Unit | IC50 |
| --- | --- | --- | --- |
| CC[C@]1(O)C[C@@H]2CN(CCc3c([nH]c4ccccc34)[C@@](C(=O)OC)(c3cc4c(cc3OC)N(C)[C@H]3[C@@](O)(C(=O)OC)[C@H](OC(C)=O)[C@]5(CC)C=CCN6CC[C@]43[C@@H]65)C2)C1 [VINBLASTINE] | KYSE-70 cell line | nM | 48.4 |

Continue with the next compound.
query: Requested field: IC50. Item: CCNC(=O)c1noc(-c2cc(C(C)C)c(O)cc2O)c1-c1ccc(CN2CCOCC2)cc1 [LUMINESPIB]
result: 38.1

----------
# IC50 listing for each entry below
Test system: LNCaP-Clone-FGC
Experiment Notes: cells
Type: functional, cell-based
Stated Conditions: Homo sapiens
Description: SANGER: Inhibition of human LNCaP-Clone-FGC cell growth in a cell viability assay.

Solved cases below.
| Compound | Property Name | Observed |
| --- | --- | --- |
| O=c1[nH]c2ccccc2n1C1CCN(Cc2ccc(-c3nc4cc5[nH]cnc5cc4nc3-c3ccccc3)cc2)CC1 | IC50 | > 2.56 µM |
| Cc1n[nH]c2ccc(-c3cncc(OC[C@@H](N)Cc4c[nH]c5ccccc45)c3)cc12 | IC50 | > 1.02 µM |
| NC(=O)c1ncn([C@@H]2O[C@H](COP(=O)(O)O)[C@@H](O)[C@H]2O)c1N | IC50 | > 2000 µM |
| Cn1cc(/C=C2\C(=O)Nc3cccnc32)c2ccccc21 | IC50 | > 2 µM |
| Cc1nc(Nc2ncc(C(=O)Nc3c(C)cccc3Cl)s2)cc(N2CCN(CCO)CC2)n1 | IC50 | > 1.28 µM |
| CCn1c(-c2nonc2N)nc2cnc(Oc3cccc(NC(=O)c4ccc(OCCN5CCOCC5)cc4)c3)cc21 [GSK-269962A] | IC50 | > 2.5 µM |

query: Requested field: IC50. Item: `CC[C@]1(O)C[C@@H]2CN(CCc3c([nH]c4ccccc34)[C@@](C(=O)OC)(c3cc4c(cc3OC)N(C)[C@H]3[C@@](O)(C(=O)OC)[C@H](OC(C)=O)[C@]5(CC)C=CCN6CC[C@]43[C@@H]65)C2)C1`
result: 0.00828 µM

query: Requested field: IC50. Item: `CC(C)=CC[C@@H](O)C1=CC(=O)c2c(O)ccc(O)c2C1=O`
result: > 16 µM

query: Requested field: IC50. Item: `CC(=O)c1c(C)c2cnc(Nc3ccc(N4CCNCC4)cn3)nc2n(C2CCCC2)c1=O`
result: > 4 µM

----------
Test system: TE-11;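 also: growth inhibition of human TE-11 cells, read out by a cell viability assay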
Experiment Notes: cells
Type: functional, cell-based
Stated Conditions: Homo sapiens
Description: SANGER: Inhibition of human TE-11 cell growth in a cell viability assay.
# IC50 listing for each entry below
# number only, unit nM dropped from output

Solved cases below.
| Structure Smiles | Measure Unit | IC50 |
| --- | --- | --- |
| CC(C)=CC[C@@H](O)C1=CC(=O)c2c(O)ccc(O)c2C1=O | nM | 4010 |
| N#C/C(=C1/Nc2ccccc2S1)c1ccnc(NCCc2cccnc2)n1 | nM | 300 |

Continue with the next molecule.
query: Requested field: IC50. Item: `CO[C@@]12[C@H](COC(N)=O)C3=C(C(=O)C(C)=C(N)C3=O)N1C[C@@H]1N[C@@H]12`
result: 91.8

----------
# pIC50 listing for each entry below
Tested on: DBTRG-05MG;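 also: cell viability assay measuring growth inhibition of human DBTRG-05MG cells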
Experiment Notes: cells
Format: functional, cell-based
Stated Conditions: Homo sapiens
Description: SANGER: Inhibition of human DBTRG-05MG cell growth in a cell viability assay.
pIC50: −log10 of the molar value.

Solved cases below.
| Structure Smiles | Observed |
| --- | --- |
| Cn1cc(/C=C2\C(=O)Nc3cccnc32)c2ccccc21 | < 5.70 |
| C[C@]1(c2nc3c(C(N)=O)cccc3[nH]2)CCCN1 | < 5.30 |
| C[C@]12O[C@H](C[C@]1(O)CO)n1c3ccccc3c3c4c(c5c6ccccc6n2c5c31)CNC4=O | < 5.70 |
| N#C/C(=C1/Nc2ccccc2S1)c1ccnc(NCCc2cccnc2)n1 | < 5.10 |

query: Requested field: pIC50. Item: `CC[C@@]1(O)C(=O)OCc2c1cc1n(c2=O)Cc2cc3ccccc3nc2-1`
result: 7.39

----------
# IC50 listing for each entry below
Tested on: Mo
Experiment Notes: cells
Format: functional, cell-based
Stated Conditions: Homo sapiens
Description: SANGER: Inhibition of human Mo-T cell growth in a cell viability assay.

| Compound | Subject Of Test | Observed |
| --- | --- | --- |
| CC[C@]1(O)C[C@@H]2CN(CCc3c([nH]c4ccccc34)[C@@](C(=O)OC)(c3cc4c(cc3OC)N(C)[C@H]3[C@@](O)(C(=O)OC)[C@H](OC(C)=O)[C@]5(CC)C=CCN6CC[C@]43[C@@H]65)C2)C1 [VINBLASTINE] | Mo | > 0.1 µM |
| O=c1cc(N2CCOCC2)oc2c(-c3cccc4c3sc3ccccc34)cccc12 | Mo | > 2 µM |
| Cc1n[nH]c2ccc(-c3cncc(OC[C@@H](N)Cc4c[nH]c5ccccc45)c3)cc12 [A-443654] | Mo | > 1.02 µM |
| C[C@]12O[C@H](C[C@]1(O)CO)n1c3ccccc3c3c4c(c5c6ccccc6n2c5c31)CNC4=O [LESTAURTINIB] | Mo | > 2 µM |
| CC(O)(CS(=O)(=O)c1ccc(F)cc1)C(=O)Nc1ccc(C#N)c(C(F)(F)F)c1 (configuration not stated) [BICALUTAMIDE] | Mo | > 1.02 µM |

query: Requested field: IC50. Item: COc1cc(C)c(Sc2cnc(NC(=O)c3ccc(CNC(C)C(C)(C)C)cc3)s2)cc1C(=O)N1CCN(C(C)=O)CC1 (configuration not stated)
result: > 10.2 µM

query: Requested field: IC50. Item: COc1cc(Nc2c(C#N)cnc3cc(OCCCN4CCN(C)CC4)c(OC)cc23)c(Cl)cc1Cl [BOSUTINIB]
result: > 2 µM

----------
System: LB373-MEL-D;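 also: growth inhibition of the cell line, read out in a cell viability assay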
Experiment Notes: cells
Format: functional, cell-based
Stated Conditions: Homo sapiens
Description: SANGER: Inhibition of human LB373-MEL-D cell growth in a cell viability assay.
pIC50: −log10 of the molar value.
Property Name: pIC50

Solved cases below.
| Compound | Subject Of Test | pIC50 |
| --- | --- | --- |
| C[C@]1(c2nc3c(C(N)=O)cccc3[nH]2)CCCN1 | LB373-MEL-D | < 5.30 |
| O=c1[nH]c2ccccc2n1C1CCN(Cc2ccc(-c3nc4cc5[nH]cnc5cc4nc3-c3ccccc3)cc2)CC1 | LB373-MEL-D | < 5.59 |
| Cn1cc(/C=C2\C(=O)Nc3cccnc32)c2ccccc21 | LB373-MEL-D | < 5.70 |
| CCNC(=O)c1noc(-c2cc(C(C)C)c(O)cc2O)c1-c1ccc(CN2CCOCC2)cc1 | LB373-MEL-D | < 6.59 |

query: Requested field: pIC50. Item: `Cc1nc(Nc2ncc(C(=O)Nc3c(C)cccc3Cl)s2)cc(N2CCN(CCO)CC2)n1`
result: 6.08

query: Requested field: pIC50. Item: `CC(C)=CC[C@@H](O)C1=CC(=O)c2c(O)ccc(O)c2C1=O`
result: 6.41

query: Requested field: pIC50. Item: COc1cc(C)c(Sc2cnc(NC(=O)c3ccc(CNC(C)C(C)(C)C)cc3)s2)cc1C(=O)N1CCN(C(C)=O)CC1 (configuration not stated)
result: < 4.99

----------
Test system: TE-6;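 also: growth inhibition of TE-6 cells, read out with a cell viability assay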
Experiment Notes: cells
Type: functional, cell-based
Stated Conditions: Homo sapiens
Description: SANGER: Inhibition of human TE-6 cell growth in a cell viability assay.
# IC50 listing for each entry below

| Molecule | Property Name | Observed |
| --- | --- | --- |
| O=c1[nH]c2ccccc2n1C1CCN(Cc2ccc(-c3nc4cc5[nH]cnc5cc4nc3-c3ccccc3)cc2)CC1 | IC50 | > 2560 nM |

query: Requested field: IC50. Item: CC(=O)c1c(C)c2cnc(Nc3ccc(N4CCNCC4)cn3)nc2n(C2CCCC2)c1=O [PALBOCICLIB]
result: > 4000 nM

query: Requested field: IC50. Item: `CCNc1cc(N[C@H]2CC[C@@H](O)CC2)nc(Nc2ccc3c(ccn3Cc3ccccc3)c2)n1`
result: > 5120 nM

query: Requested field: IC50. Item: CC(O)(CS(=O)(=O)c1ccc(F)cc1)C(=O)Nc1ccc(C#N)c(C(F)(F)F)c1 (stereo not given) [BICALUTAMIDE]
result: > 1020 nM

query: Requested field: IC50. Item: `Fc1cc(-c2cc[nH]/c(=N/c3ccc(-n4cnc(N5CCOCC5)n4)cc3)n2)cc(N2CCOCC2)c1`
result: 2000 nM

----------
Test system: HOS
Experiment Notes: cells
Assay type: functional, cell-based
Stated Conditions: Homo sapiens
Description: SANGER: Inhibition of human HOS cell growth in a cell viability assay.
Property Name: IC50

Solved cases below.
| Compound | Observed |
| --- | --- |
| CC(=O)c1c(C)c2cnc(Nc3ccc(N4CCNCC4)cn3)nc2n(C2CCCC2)c1=O | 1.35 µM |
| Cn1cc(/C=C2\C(=O)Nc3cccnc32)c2ccccc21 | > 2 µM |
| CC(O)(CS(=O)(=O)c1ccc(F)cc1)C(=O)Nc1ccc(C#N)c(C(F)(F)F)c1 (configuration not stated) [BICALUTAMIDE] | > 1.02 µM |
| N#C/C(=C1/Nc2ccccc2S1)c1ccnc(NCCc2cccnc2)n1 | > 8 µM |
| Fc1cc(-c2cc[nH]/c(=N/c3ccc(-n4cnc(N5CCOCC5)n4)cc3)n2)cc(N2CCOCC2)c1 | 0.613 µM |
| COc1cc(Nc2c(C#N)cnc3cc(OCCCN4CCN(C)CC4)c(OC)cc23)c(Cl)cc1Cl | > 2 µM |

Continue with the next compound.
query: Requested field: IC50. Item: `CCNC(=O)c1noc(-c2cc(C(C)C)c(O)cc2O)c1-c1ccc(CN2CCOCC2)cc1`
result: 0.00138 µM
